Assay target: thyroxine-binding globulin (TBG) (Homo sapiens)
Construct: purchased Bio-rad Laboratories, Inc. (Veenendaal, The Netherlands)
Sequence (P05543 21-415): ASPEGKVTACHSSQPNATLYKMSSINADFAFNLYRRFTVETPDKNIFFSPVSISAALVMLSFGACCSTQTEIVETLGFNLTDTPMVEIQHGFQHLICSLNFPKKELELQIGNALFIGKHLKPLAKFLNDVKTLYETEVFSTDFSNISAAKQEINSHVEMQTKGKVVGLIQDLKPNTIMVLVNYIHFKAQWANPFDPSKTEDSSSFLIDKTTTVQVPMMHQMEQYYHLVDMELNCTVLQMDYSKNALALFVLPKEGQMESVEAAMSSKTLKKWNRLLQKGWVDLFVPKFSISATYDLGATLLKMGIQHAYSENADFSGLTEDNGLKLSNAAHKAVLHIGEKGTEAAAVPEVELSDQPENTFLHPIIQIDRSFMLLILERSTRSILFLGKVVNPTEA
Run description: Competitive TBG-binding assay with FITC-T4 (fluorescence polarization readout)
Assay conditions: 37 °C, 15 min, preliminary temperature experiment (N = 2)
Metric: Ki

IN: Any idea what its Ki is? The compound is N[C@@H](Cc1cc(I)c(Oc2cc(I)c(O)c(I)c2)c(I)c1)C(=O)O
OUT: 2.6 nM

---

Assay target: Human TTR (Homo sapiens, UniProt P02766)
Construct: Transthyretin (prealbumin, TTR) >95% from human plasma; purchased Sigma Aldrich (Zwijndrecht, The Netherlands); host or cells: human plasma
Run description: Optimized competitive TTR-binding assay with FITC-T4 (fluorescence intensity readout)
Assay conditions: TTR IC50 [95% CI], 55 nM FITC-T4, 30 nM TTR, RT (120 min)
Metric: pIC50
Just the number, please; pIC50 means minus log10 of the concentration in mol/L.

[
  {
    "Compound smiles": "O=S(=O)(O)C(F)(F)C(F)(F)C(F)(F)C(F)(F)C(F)(F)C(F)(F)C(F)(F)C(F)(F)F",
    "pIC50": 6.71
  }
]

IN: Reported pIC50 for O=C(O)C(F)(F)C(F)(F)C(F)(F)C(F)(F)C(F)(F)C(F)(F)C(F)(F)F : what is it?
OUT: 6.34

---

Assay target: Human TTR (Homo sapiens, UniProt P02766)
Construct: Transthyretin (prealbumin, TTR) >95% from human plasma; purchased Sigma Aldrich (Zwijndrecht, The Netherlands); host or cells: human plasma
Run description: Optimized competitive TTR-binding assay with FITC-T4 (fluorescence intensity readout)
Assay conditions: TTR Ki [95% CI], 55 nM FITC-T4, 30 nM TTR, RT (120 min)
Metric: Ki (µM)
Give just the numeric value; µM need not be written.

IN: Which Ki reading was recorded for the molecule O=S(=O)(O)C(F)(F)C(F)(F)C(F)(F)C(F)(F)C(F)(F)C(F)(F)C(F)(F)C(F)(F)F ?
OUT: 0.133

---

Assay target: Human TTR (Homo sapiens, UniProt P02766)
Construct: Transthyretin (prealbumin, TTR) >95% from human plasma; purchased Sigma Aldrich (Zwijndrecht, The Netherlands); host or cells: human plasma
Run description: Optimized competitive TTR-binding assay with FITC-T4 (fluorescence intensity readout)
Assay conditions: TTR IC50, 110 nM FITC-T4, 30 nM TTR, RT, 15 min; average [95% CI]
Metric: IC50 (nM)
Give your result in nM as a bare value.

[
  {
    "Compound smiles": "O=C(O)C(F)(F)C(F)(F)C(F)(F)C(F)(F)C(F)(F)C(F)(F)C(F)(F)F",
    "Unit annotation": "nM",
    "IC50": 763
  }
]

Please look at the following molecule next.
IN: What IC50 appears in the records for this molecule with Human TTR (Homo sapiens, UniProt P02766)? O=S(=O)(O)C(F)(F)C(F)(F)C(F)(F)C(F)(F)C(F)(F)C(F)(F)C(F)(F)C(F)(F)F
OUT: 271

---

Assay target: Human TTR (Homo sapiens, UniProt P02766)
Construct: Transthyretin (prealbumin, TTR) >95% from human plasma; purchased Sigma Aldrich (Zwijndrecht, The Netherlands); host or cells: human plasma
Run description: Optimized competitive TTR-binding assay with FITC-T4 (fluorescence intensity readout)
Assay conditions: TTR Ki, 110 nM FITC-T4, 30 nM TTR, RT, 15 min; derived from IC20; average [95% CI]
Form field: pKi (one value per entry).
Lab note — pKi values are minus log10 of concentrations in M.

[
  {
    "Compound smiles": "O=S(=O)(O)C(F)(F)C(F)(F)C(F)(F)C(F)(F)C(F)(F)C(F)(F)C(F)(F)C(F)(F)F",
    "Metric": "pKi",
    "Recorded result": 6.61
  }
]

Now look at this entry.
IN: Query: pKi; subject: O=C(O)C(F)(F)C(F)(F)C(F)(F)C(F)(F)C(F)(F)C(F)(F)C(F)(F)F
OUT: 6.25

---

Assay target: Human TTR (Homo sapiens)
Construct: Transthyretin (prealbumin, TTR) >95% from human plasma; purchased Sigma Aldrich (Zwijndrecht, The Netherlands); host or cells: human plasma
Run description: Optimized competitive TTR-binding assay with FITC-T4 (fluorescence intensity readout)
Assay conditions: TTR Ki [95% CI], 55 nM FITC-T4, 30 nM TTR, on ice (120 min)
Below is a list of entries, each paired with its recorded Ki value.
Kindly answer with a numeric value in nM, unit omitted.

[
  {
    "Compound smiles": "O=C(O)C(F)(F)C(F)(F)C(F)(F)C(F)(F)C(F)(F)C(F)(F)C(F)(F)F",
    "Unit annotation": "nM",
    "Ki": 353
  }
]

Turning now to a further compound:
IN: Value lookup for Ki; key = O=S(=O)(O)C(F)(F)C(F)(F)C(F)(F)C(F)(F)C(F)(F)C(F)(F)C(F)(F)C(F)(F)F
OUT: 171

Source of measurements: paper PMC11489250
